Test: Solubility of timolol maleate in pH controlled glycol reservoir vehicles
Assay type: physicochemical
Settings: sorbitol usp + na2co3; Sorbitol USP +Na2 CO3; apparent pH 9.6
Counter-ions that a name gives are not always drawn.
measuredQuantity: solubility (µg/mL)

                                   molecule  measuredquantity  observedmeasurement
0  CC(C)(C)NC[C@H](O)COc1nsnc1N1CCOCC1 [timolol maleate]        solubility                  700

* * *

Assay: Solubility of timolol maleate in pH controlled glycol reservoir vehicles
Format: physicochemical
Conditions: sorbitol usp + na2hpo4; Sorbitol USP +Na2 HPO4; apparent pH 6.9
Structures can show the parent of a compound that is named as a salt.
measuredQuantity: solubility (mg/mL)

>>> df
                                   compound  observedmeasurement
0  CC(C)(C)NC[C@H](O)COc1nsnc1N1CCOCC1 [timolol maleate]                 17.2

* * *

Test: Solubility of timolol maleate in pH controlled glycol reservoir vehicles
Assay type: physicochemical
Conditions: 70% propylene glycol + na2co3, organic solvent or mixture; 70% Propylene glycol +Na2 CO3; apparent pH 7.6
Where a name gives a salt, the structure may show the parent alone.
measuredQuantity: solubility (mg/mL)

>>> print(df.to_string())
                                   molecule  measuredquantity  observedmeasurement
0  CC(C)(C)NC[C@H](O)COc1nsnc1N1CCOCC1 [timolol maleate]        solubility                  124

* * *

Test: Solubility in mineral oil
Assay type: physicochemical
Settings: organic solvent or mixture, 32° C.
measuredQuantity: solubility

>>> df
                            smilesdata  measuredquantity  observedmeasurement
0  CC(C)(C)NC[C@H](O)COc1nsnc1N1CCOCC1        solubility          ~7000 µg/mL
